# assay target: COX-1 (Ovis aries)
# Sequence (P05979 25-600): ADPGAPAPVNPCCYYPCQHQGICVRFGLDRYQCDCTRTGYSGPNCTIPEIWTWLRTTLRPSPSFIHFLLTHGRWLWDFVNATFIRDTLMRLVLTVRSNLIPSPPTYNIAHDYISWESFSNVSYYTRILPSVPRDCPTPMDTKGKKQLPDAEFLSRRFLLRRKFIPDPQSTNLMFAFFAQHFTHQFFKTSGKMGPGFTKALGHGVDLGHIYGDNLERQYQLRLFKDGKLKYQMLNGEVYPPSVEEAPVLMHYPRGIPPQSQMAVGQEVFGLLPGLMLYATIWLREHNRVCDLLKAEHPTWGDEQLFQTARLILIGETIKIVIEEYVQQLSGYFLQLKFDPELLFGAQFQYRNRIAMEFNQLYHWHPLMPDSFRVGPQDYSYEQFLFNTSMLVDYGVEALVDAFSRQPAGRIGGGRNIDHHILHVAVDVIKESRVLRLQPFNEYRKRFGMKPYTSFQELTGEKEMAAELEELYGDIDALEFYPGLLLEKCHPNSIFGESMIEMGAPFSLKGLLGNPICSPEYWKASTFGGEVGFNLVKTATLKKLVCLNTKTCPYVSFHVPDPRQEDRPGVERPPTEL
# measurement protocol: COX-1 inhibition assay (Cayman kit); note: test concentration or dose not given here
# experimental setup: mean ± SE, three replicates
assay endpoint: COX-1 Inhibition (%)
A number alone suffices; assume %.

// worked examples, COX-1 Inhibition (%) included
molecule	COX-1 Inhibition (%)
O=C(Nc1ccccc1)c1c(Nc2ccccc2)n[nH]c1N=Cc1c[nH]c2ccccc12 [14a]	52.79
COc1ccc(Nc2n[nH]c(N=C3C(=O)N(C)c4ccccc43)c2C(=O)Nc2ccccc2)cc1 [12c]	20.98
CCN1C(=O)C(=Nc2[nH]nc(Nc3ccccc3)c2C(=O)Nc2ccccc2)c2ccccc21 [12e]	17.62
CCN1C(=O)/C(=N\c2[nH]nc(Nc3ccccc3)c2C(=O)Nc2ccc(C)cc2)c2ccccc21 [12f]	18.91
CCN1C(=O)C(=Nc2[nH]nc(Nc3ccc(OC)cc3)c2C(=O)Nc2ccc(C)cc2)c2ccccc21 [12h]	20.56

Provide the documented COX-1 Inhibition (%) with COX-1 (Ovis aries) as the system for Cc1ccc(NC(=O)c2c(Nc3ccccc3)n[nH]c2N=C2C(=O)N(C)c3ccccc32)cc1 [12b]
18.75

Request - read-out COX-1 Inhibition (%) | tested on COX-1 (Ovis aries) | molecule CCN1C(=O)C(=Nc2[nH]nc(Nc3ccc(OC)cc3)c2C(=O)Nc2ccccc2)c2ccccc21 [12g]
21.15

Request: COX-1 Inhibition (%), test system COX-1 (Ovis aries), entry Cc1ccc(NC(=O)c2c(Nc3ccccc3)n[nH]c2N=Cc2c[nH]c3ccccc23)cc1 [14b]
69.83

###

# assay target: COX-2 (Homo sapiens)
# Construct: purchased Cayman 560131
# Sequence (P35354 18-604): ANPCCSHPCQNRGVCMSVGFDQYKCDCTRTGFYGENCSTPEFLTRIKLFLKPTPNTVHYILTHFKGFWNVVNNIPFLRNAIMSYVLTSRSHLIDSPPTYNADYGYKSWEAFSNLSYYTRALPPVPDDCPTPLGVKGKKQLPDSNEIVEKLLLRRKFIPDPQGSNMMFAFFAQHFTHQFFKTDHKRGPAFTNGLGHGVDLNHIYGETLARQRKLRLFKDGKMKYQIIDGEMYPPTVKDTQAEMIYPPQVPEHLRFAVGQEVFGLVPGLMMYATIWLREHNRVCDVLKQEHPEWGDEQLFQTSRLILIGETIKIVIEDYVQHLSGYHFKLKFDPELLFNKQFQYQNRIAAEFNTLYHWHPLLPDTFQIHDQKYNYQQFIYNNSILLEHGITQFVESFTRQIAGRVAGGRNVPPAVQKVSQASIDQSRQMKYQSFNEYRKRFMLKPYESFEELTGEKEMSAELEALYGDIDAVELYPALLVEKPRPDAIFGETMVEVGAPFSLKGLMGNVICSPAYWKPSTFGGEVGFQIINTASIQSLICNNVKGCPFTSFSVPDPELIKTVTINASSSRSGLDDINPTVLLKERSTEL
# measurement protocol: COX-2 inhibition assay (Cayman kit)
# Format: biochemical
# experimental setup: mean ± SE, three replicates
assay endpoint: COX-2 Inhibition (%)
Write down the numeric answer in % and omit the unit.

Below, 5 compounds whose answers are already recorded.
compound	assay target	readout unit	COX-2 Inhibition (%)
CCN1C(=O)/C(=N\c2[nH]nc(Nc3ccccc3)c2C(=O)Nc2ccc(C)cc2)c2ccccc21 [12f]	COX-2 (Homo sapiens)	%	21.16
CCN1C(=O)C(=Nc2[nH]nc(Nc3ccccc3)c2C(=O)Nc2ccccc2)c2ccccc21 [12e]	COX-2 (Homo sapiens)	%	19.87
Cc1ccc(NC(=O)c2c(Nc3ccccc3)n[nH]c2N=Cc2c[nH]c3ccccc23)cc1 [14b]	COX-2 (Homo sapiens)	%	72.08
COc1ccc(Nc2n[nH]c(N=Cc3c[nH]c4ccccc34)c2C(=O)Nc2ccc(C)cc2)cc1 [14d]	COX-2 (Homo sapiens)	%	37.88
O=C(Nc1ccccc1)c1c(Nc2ccccc2)n[nH]c1N=Cc1c[nH]c2ccccc12 [14a]	COX-2 (Homo sapiens)	%	55.04

Bench note: what COX-2 Inhibition (%) did CCN1C(=O)C(=Nc2[nH]nc(Nc3ccc(OC)cc3)c2C(=O)Nc2ccccc2)c2ccccc21 [12g] show?
23.40

Recorded COX-2 Inhibition (%) of COc1ccc(Nc2n[nH]c(N=Cc3c[nH]c4ccccc34)c2C(=O)Nc2ccccc2)cc1 [14c] , please.
37.32

Param item = CCN1C(=O)C(=Nc2[nH]nc(Nc3ccc(OC)cc3)c2C(=O)Nc2ccc(C)cc2)c2ccccc21 [12h] ; retrieve measured COX-2 Inhibition (%).
22.81

Consider the compound shown here: COc1ccc(Nc2n[nH]c(N=C3C(=O)N(C)c4ccccc43)c2C(=O)Nc2ccccc2)cc1 [12c] What is its recorded COX-2 Inhibition (%)?
23.23

Consider the compound Cc1ccc(NC(=O)c2c(Nc3ccccc3)n[nH]c2N=C2C(=O)N(C)c3ccccc32)cc1 [12b] and give its measured COX-2 Inhibition (%).
21.00

For COc1ccc(Nc2n[nH]c(N=C3C(=O)N(C)c4ccccc43)c2C(=O)Nc2ccc(C)cc2)cc1 [12d] , what is its reported COX-2 Inhibition (%)?
23.05

# input compound: CN1C(=O)C(=Nc2[nH]nc(Nc3ccccc3)c2C(=O)Nc2ccccc2)c2ccccc21 [12a] ; wanted: its COX-2 Inhibition (%)
19.72

###

# assay target: COX-1 (Ovis aries)
# measurement protocol: COX-1 inhibition assay (Cayman kit); note: test concentration or dose not given here
# experimental setup: mean ± SE, three replicates
COX-1 Inhibition (%) overview
State the answer as a number, implicitly in %.

Record excerpt, results attached:
compound	readout unit	COX-1 Inhibition (%)
COc1ccc(Nc2n[nH]c(N=Cc3c[nH]c4ccccc34)c2C(=O)Nc2ccccc2)cc1 [14c]	%	35.07
CN1C(=O)C(=Nc2[nH]nc(Nc3ccccc3)c2C(=O)Nc2ccccc2)c2ccccc21 [12a]	%	17.47
COc1ccc(Nc2n[nH]c(N=C3C(=O)N(C)c4ccccc43)c2C(=O)Nc2ccc(C)cc2)cc1 [12d]	%	20.80

Let's switch to this compound now.
Looking for the measured COX-1 Inhibition (%) of COc1ccc(Nc2n[nH]c(N=Cc3c[nH]c4ccccc34)c2C(=O)Nc2ccc(C)cc2)cc1 [14d] , can you help?
35.63

###

# assay target: bovine serum albumin (BSA) (Bos taurus); note: test concentration or dose not given here
# experimental setup: mean ± SE, three replicates
assay endpoint: Protein Denaturation Inhibition (%)
Could you give the number and then its unit, please?

// below: answered compounds
compound	observed value
CCN1C(=O)C(=Nc2[nH]nc(Nc3ccc(OC)cc3)c2C(=O)Nc2ccccc2)c2ccccc21 [12g]	16.85 ± 0.03%
CN1C(=O)C(=Nc2[nH]nc(Nc3ccccc3)c2C(=O)Nc2ccccc2)c2ccccc21 [12a]	14.40 ± 0.03%
CCN1C(=O)C(=Nc2[nH]nc(Nc3ccc(OC)cc3)c2C(=O)Nc2ccc(C)cc2)c2ccccc21 [12h]	16.45 ± 0.03%
Cc1ccc(NC(=O)c2c(Nc3ccccc3)n[nH]c2N=Cc2c[nH]c3ccccc23)cc1 [14b]	49.30 ± 0.17%
CCN1C(=O)/C(=N\c2[nH]nc(Nc3ccccc3)c2C(=O)Nc2ccc(C)cc2)c2ccccc21 [12f]	15.36 ± 0.03%

Suppose we examine the compound COc1ccc(Nc2n[nH]c(N=Cc3c[nH]c4ccccc34)c2C(=O)Nc2ccccc2)cc1 [14c] ; what Protein Denaturation Inhibition (%) value has been reported?
26.13 ± 0.17%

###

Listed compounds paired with reported Protein Denaturation Inhibition (%)
# assay target: bovine serum albumin (BSA) (Bos taurus, UniProt P02769); note: test concentration or dose not given here
# Sequence (P02769 25-607): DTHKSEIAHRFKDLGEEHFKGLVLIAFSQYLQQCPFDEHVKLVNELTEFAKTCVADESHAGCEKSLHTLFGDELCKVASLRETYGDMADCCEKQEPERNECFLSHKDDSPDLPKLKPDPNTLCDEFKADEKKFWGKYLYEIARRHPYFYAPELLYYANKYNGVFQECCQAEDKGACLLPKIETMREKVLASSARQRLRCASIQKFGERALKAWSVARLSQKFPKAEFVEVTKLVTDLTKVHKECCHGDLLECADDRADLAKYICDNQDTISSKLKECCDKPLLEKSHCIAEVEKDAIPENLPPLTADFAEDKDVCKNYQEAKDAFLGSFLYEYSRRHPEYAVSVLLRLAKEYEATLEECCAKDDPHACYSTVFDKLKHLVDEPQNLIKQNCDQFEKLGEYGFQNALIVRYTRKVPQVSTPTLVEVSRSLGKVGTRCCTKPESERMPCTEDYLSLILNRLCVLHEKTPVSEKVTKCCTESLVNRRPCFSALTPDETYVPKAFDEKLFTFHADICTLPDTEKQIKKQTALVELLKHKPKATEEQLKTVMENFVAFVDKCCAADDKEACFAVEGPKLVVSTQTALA
# experimental setup: mean ± SE, three replicates
Write it as a number; the unit % goes unstated.

compound	readout unit	Protein Denaturation Inhibition (%)
Cc1ccc(NC(=O)c2c(Nc3ccccc3)n[nH]c2N=C2C(=O)N(C)c3ccccc32)cc1 [12b]	%	15.25
O=C(Nc1ccccc1)c1c(Nc2ccccc2)n[nH]c1N=Cc1c[nH]c2ccccc12 [14a]	%	37.94
COc1ccc(Nc2n[nH]c(N=C3C(=O)N(C)c4ccccc43)c2C(=O)Nc2ccc(C)cc2)cc1 [12d]	%	16.62

Record request: Protein Denaturation Inhibition (%) value, item COc1ccc(Nc2n[nH]c(N=C3C(=O)N(C)c4ccccc43)c2C(=O)Nc2ccccc2)cc1 [12c]
16.73

Field request: Protein Denaturation Inhibition (%) | item: CCN1C(=O)C(=Nc2[nH]nc(Nc3ccccc3)c2C(=O)Nc2ccccc2)c2ccccc21 [12e]
14.50

Which value of Protein Denaturation Inhibition (%) has been reported for COc1ccc(Nc2n[nH]c(N=Cc3c[nH]c4ccccc34)c2C(=O)Nc2ccc(C)cc2)cc1 [14d] in the records?
26.50
